For each record, write down the corresponding %Inh.
Test system: NEK2
CONDITION_LABEL: concentration: 1 μM, replicates: in singlicate; n = 1;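 also: KINOMEscan kinase panel screen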
One number for each entry, in %.

CCC(=O)c1c(-c2ccccc2)c2cc(Cl)ccc2c(=O)n1Cc1cc(S(C)(=O)=O)n(CC(N)=O)n1 : 0
Nc1n[nH]c2ncc(-c3ccccc3)cc12 : 27
COc1ccc(-c2cc3c(C)nc(N)nc3n([C@H]3CC[C@H](O)CC3)c2=O)cn1 : 0
Nc1n[nH]c2nnc(-c3ccccc3)c(-c3ccccc3)c12 : 0

// batch mode: one %Inh value per listed entry
1. O=C(NCc1cccs1)c1cc(C(=O)c2c(Cl)cccc2Cl)c[nH]1
2. O=C(Nc1ccc2c(c1)OCO2)NC1CCN(c2ccnc(NCc3ccc(F)cc3)n2)CC1
3. CCc1nc(-c2cccc(C)c2)c(-c2ccncc2)s1
4. Nc1nccc2scc(-c3ccc4c(c3)CCN4C(=O)Cc3ccccc3)c12
5. O=C(Nc1n[nH]c2cc(-c3ccccc3F)ccc12)C1CC1

Given back:
1: 0; 2: 3; 3: 0; 4: 4; 5: 0

// batch mode: one %Inh value per listed entry
1. COc1cc2ncn(-c3cc(OCc4ccc(S(C)(=O)=O)cc4)c(C(N)=O)s3)c2cc1OC
2. CCC(=O)c1c(-c2ccccc2)c2cc(Cl)ccc2c(=O)n1Cc1ccc(C(=O)O)cc1
3. Cc1ccc(-c2ccc3c(ccc4sc5c(c43)NC[C@@H](C)N=C5N(C)C)n2)cn1
4. COc1cc2ncn(-c3cc(OCc4ccncc4)c(C(N)=O)s3)c2cc1OC
5. Cc1cc(Nc2nc(-c3cccc(C)n3)nc3ccccc23)ccn1

Given back:
0
0
0
10
0

// batch mode: one %Inh value per listed entry
1. COc1ccc(-n2cnc3c(N)ncnc32)cc1
2. Cl.c1ccc(Cn2cnc3cc(Nc4ncnc5ccccc45)ccc32)cc1

Given back:
0
0

---

Tested on: KIT-autoinhibited
CONDITION_LABEL: concentration: 1 μM, replicates: in singlicate; n = 1
PROPERTY_NAME: %Inh (%)
Give bare numbers, in %.

O=C(Nc1n[nH]c2nc(-c3ccccc3)c(Br)cc12)C1CC1 [SB-708998] : 9
Cc1c(Cn2c(C)nn3c(=O)cc(N4CCO[C@H](C)C4)nc23)cccc1C(F)(F)F [GSK2373690] : 0
O=c1cc(N2CCOCC2)nc2n(Cc3ccc(F)c(Cl)c3)ccn12 [GSK2297099] : 0
O=C(Nc1ccc2c(c1)OCO2)NC1CCN(c2ccnc(NCc3ccc(F)cc3)n2)CC1 [GSK1379859] : 0
COc1ccc(Nc2nccc(N3CCC(NS(=O)(=O)c4ccc(NC(C)=O)cc4)C3)n2)cc1 (stereo not shown) [GSK1379729] : 0
COc1cc2ncn(-c3cc(OCc4ccncc4Br)c(C(N)=O)s3)c2cc1OC [GW854278] : 5

// batch mode: one %Inh value per listed entry
1. Nc1nccc2scc(-c3ccc4c(c3)CCN4C(=O)Cc3ccccc3)c12 [GSK2576924]
2. CCc1ccc(-c2ccc3c(c2)-c2nn(C)cc2S(=O)(=O)N3C)cc1

Given back:
1: 5; 2: 53

// batch mode: one %Inh value per listed entry
1. FC(F)(F)c1ccc(-c2ncn(CCCN3CCOCC3)c2-c2ccncc2)cc1 [SB-217780]
2. CN1C(=O)C(Nc2ccccc2)=C(c2ccccc2)C1=O [SB-300079]

Given back:
1: 0; 2: 17

// batch mode: one %Inh value per listed entry
1. COC(=O)c1c(-c2ccccc2)c2cc(Br)ccc2c(=O)n1Cc1ccc(S(C)(=O)=O)cc1
2. Fc1cccc(CSc2nnc(-c3ccc4c(c3)CCO4)o2)c1

Given back:
1: 6; 2: 6

// batch mode: one %Inh value per listed entry
1. Nc1ncnc2c1ncn2-c1cccc2ccccc12 [SKF-97184]
2. Cn1c(=O)c(F)c(Nc2ccc(I)cc2F)c2c(=O)n(OC[C@H](O)CO)cnc21
3. CCC(=O)c1c(-c2ccccc2)c2cc(Cl)ccc2c(=O)n1Cc1ccc(C(=O)O)cc1
4. Nc1n[nH]c2ncc(-c3ccccc3)cc12 [SB-517081]
5. Cc1cccc(-c2cc(-c3c[nH]nc3-c3ccccn3)ccn2)c1 [GW679395]
6. Cc1nn2c(=O)cc(N3CCOCC3)nc2n1Cc1cccc(Cl)c1Cl [GSK2342769]
7. COc1ccc(-c2cc3c(C)nc(N)nc3n([C@H]3CC[C@H](OCCO)CC3)c2=O)cn1

Given back:
1. 20
2. 0
3. 0
4. 13
5. 0
6. 0
7. 0
